assay: NCI Yeast Anticancer Drug Screen. Data for the cln2 rad14 strain (AID 165);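 also: 0% = growth equal to vehicle treated cultures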; conditions: S. cerevisiae cln2 rad14 strain, at 50.0 µM, hits give high values
Compounds without any hit were thinned out: in the full panel of roughly 79,000, 15% have a hit.
quantity name: growth inhibition (%)
One number for each entry, in %.

Some compounds with recorded growth inhibition:
[[record]]
compound = "COC(=O)c1ccccc1N=NN(C)CC1OC2OC(C)(C)OC2C1OC (stereo unspecified)"
quantity_name = "growth inhibition"
result_value = -0.8

[[record]]
compound = "COc1cc(C2c3cc4c(cc3[C@@H](Nc3ccc5c(c3)OCCO5)C3COC(=O)[C@H]23)OCO4)cc(OC)c1O (stereo partly specified)"
quantity_name = "growth inhibition"
result_value = 85.8

[[record]]
compound = "Cc1c2ccnc(C(N)=O)c2c(C)c2c1[nH]c1ccccc12"
quantity_name = "growth inhibition"
result_value = 47.1

[[record]]
compound = "Cc1ccc(S(=O)(=O)Nc2ccc3c(c2)C(=O)c2ccccc2-3)cc1"
quantity_name = "growth inhibition"
result_value = 58.5

[[record]]
compound = "COC(=O)C12CCC(=O)C(C)=C1CCC(OC)(OC)C2 (stereo unspecified)"
quantity_name = "growth inhibition"
result_value = -1


I need growth inhibition for every entry listed below, if you could help.
1. OC(CCl)COc1c(Cl)c(Cl)c(Cl)c(Cl)c1Cl (stereo unspecified)
2. N#CC1C=C(Cl)c2ccc(Cl)cc2N1C(=O)c1ccccc1 (stereo unspecified)
3. O=C(N/C(=C\c1ccccc1Cl)c1nc2ccccc2s1)c1ccccc1
4. O=C(/C=C/C=C/c1ccccc1)c1ccco1
5. CN(C)CC(CN(C)C)C(=O)c1ccc(Oc2ccccc2)cc1

Given back:
1. -32.7
2. 99.4
3. 99
4. 50.4
5. 99.6

Looking up "COc1cc(C2=N/C(=C\c3ccccc3O)C(=O)O2)cc(OC)c1OC" , I found its growth inhibition recorded as 8.7

###

experiment: NCI Yeast Anticancer Drug Screen. Data for the bub3 strain (AID 167); conditions: S. cerevisiae bub3 mutant strain, at 50.0 µM (retest, dose inferred, filed as 5.0), hits give high values
Compounds without any hit were thinned out: in the full panel of roughly 79,000, 15% have a hit.
quantity name: growth inhibition (%)
Give bare numbers, in %.

Some compounds with recorded growth inhibition:
[[record]]
compound = "Nc1c(-c2c(Cl)cccc2Cl)[n+]([O-])c2ccccc2[n+]1[O-]"
unit_of_measurement = "%"
result_value = 99

[[record]]
compound = "O=C(O)Cc1nc2ccccc2[nH]1"
unit_of_measurement = "%"
result_value = 98

[[record]]
compound = "O=C1c2ccccc2C(=O)N1c1ccccc1"
unit_of_measurement = "%"
result_value = 15

[[record]]
compound = "CC([N+](=O)[O-])C1(O)C(=O)c2cccc3cccc1c23 (centres undefined)"
unit_of_measurement = "%"
result_value = 91

[[record]]
compound = "CCC[CH2][Ge]([CH2]CCC)([CH2]CCC)[O]C(C)=O"
unit_of_measurement = "%"
result_value = 6

[[record]]
compound = "O.O.O=C(O)C(O)C(O)C(OC1OC(CO)C(O)C(O)C1O)C(O)CO.O=C(O)C(O)C(O)C(OC1OC(CO)C(O)C(O)C1O)C(O)CO.[NH-]C1CCCCC1[NH-].[Pt+2] (centres undefined)"
unit_of_measurement = "%"
result_value = -2

[[record]]
compound = "CCCCOP(=O)(OCCCC)C(NS(=O)(=O)c1ccccc1)(C(=O)OCC)C(F)(F)F (centres undefined)"
unit_of_measurement = "%"
result_value = 47

[[record]]
compound = "CCc1cc2c([nH]c3ccccc32)c(C)c1CCN(C)C"
unit_of_measurement = "%"
result_value = -5


I need growth inhibition for every entry listed below, if you could help.
1. O=S(=O)(Cl)c1ccc(Br)cc1
2. CCCCNC(=S)NC1C2CC3CC(C2)CC1C3 (centres undefined)
3. Oc1ccccc1/C=N/NC(=S)NC12CC3CC(CC(C3)C1)C2
4. O=C(Nc1c(Cl)cccc1Cl)Oc1cccc2cccnc12
5. COc1ccccc1C1SC(c2ccccc2)(c2ccccc2)OC1=O (centres undefined)

Given back:
99
24
21
96
16

I need growth inhibition for every entry listed below, if you could help.
1. Nc1nnc(-c2cc([N+](=O)[O-])cc([N+](=O)[O-])c2)o1
2. Cc1occc1C(=S)Nc1ccc(Cl)c(C(=O)OC(C)C2CC2)c1 (centres undefined)
3. CCCCCCCNc1ccc2c(cc1=O)C(NC(C)=O)CCc1cc(OC)c(OC)c(OC)c1-2 (centres undefined)
4. CC(=O)N1CCC(Cc2ccccc2)CC1

Given back:
7
56
97
89

###

experiment: NCI Yeast Anticancer Drug Screen. Data for the mec2-1 strain (AID 157); conditions: S. cerevisiae mec2-1 strain, at 5.0 µM (retest, dose inferred, filed as 0.5), hits give high values
The panel holds about 79,000 compounds, 15% with a hit somewhere; the sample as a whole holds those more often.
quantity name: growth inhibition (%)
Give bare numbers, in %.

[[record]]
compound = "CNC(=O)N/N=C/c1ccc([N+](=O)[O-])o1"
unit_of_measurement = "%"
result_value = 4

[[record]]
compound = "CC(=O)OC1C(C)OC(OC(=O)C2CCC3C(C2)OC2(CC(OC(=O)/C=C/c4ccccc4)C(C)CO2)C32CO2)C(OC2OC(C)C(O)C(OC(C)=O)C2O)C1O (stereo not drawn)"
unit_of_measurement = "%"
result_value = 36

[[record]]
compound = "COc1cc(/C=C(\\C#N)c2ccc([N+](=O)[O-])cc2)ccc1O"
unit_of_measurement = "%"
result_value = -23


I need growth inhibition for every entry listed below, if you could help.
1. CC1(C)N=C(N)N=C(N)N1c1cccc(CCCCC(=O)CCl)c1
2. O=S1(=O)CC(Cl)(Cl)C1
3. OC(Cc1ccccc1)(c1ccccc1)C(O)(Cc1ccccc1)c1ccccc1 (stereo not drawn)
4. Cc1ccc(N=C=C(c2ccccc2)c2ccccc2)cc1

Given back:
1: 0; 2: 3; 3: 20; 4: 26

I need growth inhibition for every entry listed below, if you could help.
1. COC(=O)c1c(C(N)=O)c(C)n(NC(=O)c2ccccc2)c1C
2. CN(C(=S)c1ccccc1)c1ccccc1
3. N/N=C(\N)c1ccc2ccc3cccnc3c2n1

Given back:
1: -5; 2: -45; 3: 2

I need growth inhibition for every entry listed below, if you could help.
1. N#[N+]c1ccc2c(S(=O)(=O)Oc3ccc(C(=O)c4ccccc4)c(OS(=O)(=O)c4cccc5c([O-])c([N+]#N)ccc45)c3)cccc2c1[O-]
2. Oc1c(Br)c(Br)c(O)c(Br)c1Br
3. CC(=O)Nc1ccc2c(c1)/C(=N/O)c1ccccc1-2
4. Cc1ccc(C)c(N2C(=O)C(=O)C(c3nc4ccccc4o3)/C(=N\NC(=O)c3ccccc3O)C2=O)c1 (stereo not drawn)
5. C/C(=N\NC(=S)N(C)C1CCCCC1)c1ccc2ccccc2n1
6. CCC(CCCN(CC)CCc1ccccc1)OC(=O)c1cc(OC)c(OC)c(OC)c1 (stereo not drawn)
7. CN(C)c1ccc(/C=C(\C#N)c2c(F)cccc2F)cc1
8. CNC(=O)c1ccc(OC)cc1C1(O)c2ccccc2CCc2ccccc21

Given back:
1. -7
2. 7
3. -11
4. 1
5. 28
6. -10
7. 3
8. 34

I need growth inhibition for every entry listed below, if you could help.
1. CC(C)C(NC(=O)/C=C\c1ccccc1)C(=O)O (stereo not drawn)
2. CC(C)(Sc1cc(Cl)c(Cl)c(Cl)c1)C(=O)OCCN1CCOCC1
3. c1ccc(N=C2c3ccsc3C(=Nc3ccccc3)c3ccsc32)cc1
4. O=C1Nc2ccccc2/C1=N\N=c1/scc(-c2ccccc2)n1-c1ccccc1
5. O=S(=O)(Nc1ccnn1-c1ccccc1)c1ccc(N=Cc2c3ccccc3nc3cc(Cl)ccc23)cc1
6. CC(C)CC(NC(=O)COc1c(Cl)cc(Cl)c(Cl)c1Cl)C(=O)O (stereo not drawn)
7. CC(/C(=N/NC(=O)C(N)=O)c1c(Cl)ccc(Cl)c1O)C1(O)C(=O)Nc2ccccc21 (stereo not drawn)
8. Cc1c(C)n(-c2ccccc2)c2nc(S(C)(=O)=O)nc(S(C)(=O)=O)c12

Given back:
[1, 77, 22, 5, 12, -1, 2, 8]

I need growth inhibition for every entry listed below, if you could help.
1. COC(=O)c1nc(=S)[nH]c(C(=O)OC)c1C(=O)c1ccccn1
2. CS(=O)(=O)OC1COC2C(I)COC12 (stereo not drawn)
3. CCOc1ccccc1-c1nc2c(s1)C(=O)c1ccccc1C2=O
4. O=C(CC1(O)C(=O)Nc2c(Cl)cc(Cl)cc21)c1ccc(Br)cc1 (stereo not drawn)
5. CCOC(=O)c1cc2c(nc1N)/C(=C/c1ccccc1)CCCC2
6. O=C(C(Oc1ccc(Cl)cc1)Oc1ccc(Cl)cc1)N(O)c1ccccc1OCc1ccccc1
7. CC12CCCC1C1CC=C3CC(OC=O)CCC3(C)C1CC2 (stereo not drawn)
8. CN(C)CCCNc1ccc(O)c2sc3ccccc3c(=O)c12

Given back:
-3
3
100
-9
31
3
10
-5

I need growth inhibition for every entry listed below, if you could help.
1. O=C(/C=C/C(=O)c1ccc(O)cc1)c1ccccc1
2. CCCCCCCC1SCC(=O)N1c1nncs1 (stereo not drawn)
3. Nc1ccc2ccccc2c1Cc1c(O)ccc2ccccc12
4. CNC(=N)c1ccc(NC(=N)c2ccc(NC(=O)c3ccc(C(=O)Nc4ccc(C(=N)Nc5ccc(C(=N)NC)cc5)cc4)cc3)cc2)cc1
5. CN(C)c1nc(=Nc2ccc(N=c3nc(N(C)C)ss3)cc2)ss1

Given back:
1. -1
2. 0
3. 0
4. 81
5. 4

I need growth inhibition for every entry listed below, if you could help.
1. CC[n+]1c(/C=C/c2cc(C(=O)OC)n3c2sc2ccccc23)sc2ccccc21
2. Cc1cc(N(CCC#N)CCC#N)ccc1/C(N=Nc1cccc([N+](=O)[O-])c1)=N/NC(=O)c1cc(Cl)ccc1O
3. CC1CCC(C(C)C2C(O)CC3C4CC=C5CC(O)CCC5(C)C4CCC32C)NC1 (stereo not drawn)
4. CCN(CC)CCNc1c(C)ccc2cccnc12

Given back:
1. 38
2. 8
3. 1
4. -4
